- methodSummary: Protein binding in human plasma
- Format: ADME, cell-free
- reportedConditions: read-out: PPB (converted)
parameter: fraction unbound
Field format: numeric only.

Known results for molecules:
C=CC(=O)N1CCN(c2c(C#N)c(=O)n(-c3c(C)ccnc3C(C)C)c3nc(-c4c(N)c(F)c(F)c(F)c4F)c(Cl)cc23)CC1 (atropisomer M)
0.021
C=CC(=O)N1CCN(c2c(C#N)c(=O)n(-c3c(C)ccnc3C(C)C)c3nc(-c4c(F)c(F)c(F)c(N)c4Cl)c(Cl)cc23)CC1 (atropisomer M)
0.023

C=CC(=O)N1CCN(c2c(C#N)c(=O)n(-c3c(C)ccnc3C(C)C)c3nc(-c4c(N)c(Cl)cc(Cl)c4F)c(Cl)cc23)CC1 (atropisomer M) yielded fraction unbound of 0.004
